ASSAYED TARGET: Cytochrome P450 1B1 (Homo sapiens, UniProt Q16678)
Sequence (Q16678 whole entry): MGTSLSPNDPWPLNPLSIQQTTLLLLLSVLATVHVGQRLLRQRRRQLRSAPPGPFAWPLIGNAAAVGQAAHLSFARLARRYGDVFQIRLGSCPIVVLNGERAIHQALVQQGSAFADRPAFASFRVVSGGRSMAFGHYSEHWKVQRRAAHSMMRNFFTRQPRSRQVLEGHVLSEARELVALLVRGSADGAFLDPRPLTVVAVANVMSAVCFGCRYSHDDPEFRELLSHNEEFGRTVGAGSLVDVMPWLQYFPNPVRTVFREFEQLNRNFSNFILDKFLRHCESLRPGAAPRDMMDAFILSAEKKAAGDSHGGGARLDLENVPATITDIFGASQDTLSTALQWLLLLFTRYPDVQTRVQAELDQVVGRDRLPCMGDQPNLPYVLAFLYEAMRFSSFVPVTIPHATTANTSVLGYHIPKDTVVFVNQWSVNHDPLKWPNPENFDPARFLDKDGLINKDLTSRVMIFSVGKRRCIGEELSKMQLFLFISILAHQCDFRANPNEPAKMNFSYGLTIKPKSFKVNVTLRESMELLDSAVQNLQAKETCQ
METHOD: Inhibition of human recombinant CYP1B1 using 7-ethoxyresorufin as substrate incubated under dark condition for 30 mins in presence of NADPH by EROD fluorescence assay
pIC50: −log10 of the molar value.
Outcome: T for pIC50 of at least 8; F for anything lower.

For this compound, is measured pIC50 8 or higher? Cc1ccccc1-c1csc(C(=O)Nc2cc(Cl)cc(Cl)c2)n1
F

And the next one, O=C(Nc1cccc(F)c1)c1nc(-c2ccccc2)cs1 ?
F

And the next one, NC(=O)c1ccc(-c2csc(C(=O)Nc3ccc(OC(F)F)cc3)n2)cc1 ?
T

And the next one, O=C(Nc1cc(Cl)cc(Cl)c1)c1nc(-c2ccnc(Cl)c2)cs1 ?
T

Next:
For this compound, is measured pIC50 8 or higher? O=C(Nc1ccc(Cl)cc1Cl)c1nc(-c2ccccc2F)cs1
T

----------
METHOD: MRT (0 to infinity) in male Sprague-Dawley rat at 2 mg/kg, iv measured up to 24 hrs by LC-MS/MS analysis
Type: ADME, organism-based
CONDITION SET: in vivo
METRIC NAME: MRT inf (min)
Just the number please, in min, no unit attached.

May I ask what MRT inf has been recorded for O=C(Nc1cc(Cl)cc(Cl)c1)c1nc(-c2cccc(Cl)c2)cs1 ?
43.8

----------
The entries below come with measured half-life values attached.
METHOD: Metabolic stability in liver microsomes (unknown origin) assessed as half life at 0.5 mg/ml measured up to 60 mins by LC-MS/MS analysis
Format: ADME, Microsome

# example entries with known answers
May I ask what half-life has been recorded for N#Cc1ccc(-c2csc(C(=O)Nc3cc(Cl)cc(Cl)c3)n2)cc1 ?
> 1 h

And the next one, O=C(Nc1cc(Cl)cc(Cl)c1)c1nc(-c2cccc(Cl)c2)cs1 ?
> 1 h

Turning to the following compound.
May I ask what half-life has been recorded for N#Cc1ccc(-c2csc(C(=O)Nc3ccc(C(F)(F)F)cc3)n2)cc1 ?
1.17 h

----------
ASSAYED TARGET: UniProt P05177
Sequence (P05177 whole entry): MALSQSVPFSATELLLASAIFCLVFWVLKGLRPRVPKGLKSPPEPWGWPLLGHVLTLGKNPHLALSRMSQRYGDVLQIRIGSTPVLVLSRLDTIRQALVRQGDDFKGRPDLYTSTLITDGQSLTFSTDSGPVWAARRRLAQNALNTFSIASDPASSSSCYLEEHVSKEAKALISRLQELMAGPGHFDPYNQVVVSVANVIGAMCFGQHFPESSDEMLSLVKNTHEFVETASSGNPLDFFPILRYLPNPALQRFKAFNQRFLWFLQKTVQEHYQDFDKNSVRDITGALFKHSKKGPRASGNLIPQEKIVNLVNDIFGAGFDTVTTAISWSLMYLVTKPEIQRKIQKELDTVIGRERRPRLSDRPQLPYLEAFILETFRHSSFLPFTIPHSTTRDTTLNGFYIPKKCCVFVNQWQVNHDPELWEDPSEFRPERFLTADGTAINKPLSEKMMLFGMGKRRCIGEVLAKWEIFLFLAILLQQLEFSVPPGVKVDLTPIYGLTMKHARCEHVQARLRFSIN
METHOD: Inhibition of human recombinant CYP1A2 using 7-ethoxyresorufin as substrate incubated under dark condition for 45 mins in presence of NADPH by EROD fluorescence assay
pIC50: −log10 of the molar value.
Outcome: True for pIC50 of at least 6; False for anything lower.

These solved cases illustrate the format of a correct answer.
For this compound, is measured pIC50 6 or higher? N#Cc1ccc(-c2csc(C(=O)Nc3ccc(OC(F)F)cc3)n2)cc1
False

And the next one, Cc1sc(C(=O)Nc2cc(Cl)cc(Cl)c2)nc1-c1ccc(F)cc1 ?
False

And the next one, N#Cc1cccc(-c2csc(C(=O)Nc3ccc(C(F)(F)F)cc3)n2)c1 ?
False

And the next one, O=C(Nc1cc(Cl)cc(Cl)c1)c1nc(-c2ccc(F)cc2)c(-c2ccccc2)s1 ?
False

And the next one, O=C(Nc1ccc(Cl)cc1Cl)c1nc(-c2cccc(F)c2)cs1 ?
False

And the next one, O=C(Nc1cc(Cl)cc(Cl)c1)c1nc(-c2ccc([N+](=O)[O-])cc2)cs1 ?
False

And the next one, O=C(Nc1ccc(Cl)cc1Cl)c1nc(-c2ccccc2F)cs1 ?
True

And the next one, O=C(Nc1ccc(-n2ccnc2)cc1)c1nc(-c2ccccc2)cs1 ?
True

And the next one, O=C(Nc1cc(Cl)cc(Cl)c1)c1nc(-c2cccc(Cl)c2)cs1 ?
False

Here is another compound to look at.
For this compound, is measured pIC50 6 or higher? COc1cc(Cl)cc(NC(=O)c2nc(-c3ccccc3)cs2)c1
True

----------
METHOD: Stability in human plasma assessed as half life at 100 uM measured up to 120 mins by LC-MS/MS analysis
Format: ADME, cell-free
The entries below come with measured half-life at 100 µM values attached.

# example entries with known answers
May I ask what half-life at 100 µM has been recorded for O=C(Nc1cc(Cl)cc(Cl)c1)c1nc(-c2cccc(Cl)c2)cs1 ?
> 2 h

And the next one, N#Cc1ccc(-c2csc(C(=O)Nc3cc(Cl)cc(Cl)c3)n2)cc1 ?
> 2 h

Next:
May I ask what half-life at 100 µM has been recorded for N#Cc1ccc(-c2csc(C(=O)Nc3ccc(C(F)(F)F)cc3)n2)cc1 ?
> 2 h

----------
METHOD: Tmax in male Sprague-Dawley rat at 2 mg/kg, iv measured up to 24 hrs by LC-MS/MS analysis
Format: ADME, organism-based
CONDITION SET: in vivo
METRIC NAME: Tmax (min)
Just the number please, in min, no unit attached.

May I ask what Tmax has been recorded for O=C(Nc1cc(Cl)cc(Cl)c1)c1nc(-c2cccc(Cl)c2)cs1 ?
4.8

----------
METHOD: Apparent volume of distribution in male Sprague-Dawley rat at 2 mg/kg, iv measured up to 24 hrs by LC-MS/MS analysis
Assay type: ADME, organism-based
CONDITION SET: in vivo, read-out: Vz
METRIC NAME: Vd (L/kg)
Just the number please, in L/kg, no unit attached.

May I ask what Vd has been recorded for O=C(Nc1cc(Cl)cc(Cl)c1)c1nc(-c2cccc(Cl)c2)cs1 ?
4.77

----------
ASSAYED TARGET: CYP2C9 (Homo sapiens, UniProt P11712)
Sequence (P11712 whole entry): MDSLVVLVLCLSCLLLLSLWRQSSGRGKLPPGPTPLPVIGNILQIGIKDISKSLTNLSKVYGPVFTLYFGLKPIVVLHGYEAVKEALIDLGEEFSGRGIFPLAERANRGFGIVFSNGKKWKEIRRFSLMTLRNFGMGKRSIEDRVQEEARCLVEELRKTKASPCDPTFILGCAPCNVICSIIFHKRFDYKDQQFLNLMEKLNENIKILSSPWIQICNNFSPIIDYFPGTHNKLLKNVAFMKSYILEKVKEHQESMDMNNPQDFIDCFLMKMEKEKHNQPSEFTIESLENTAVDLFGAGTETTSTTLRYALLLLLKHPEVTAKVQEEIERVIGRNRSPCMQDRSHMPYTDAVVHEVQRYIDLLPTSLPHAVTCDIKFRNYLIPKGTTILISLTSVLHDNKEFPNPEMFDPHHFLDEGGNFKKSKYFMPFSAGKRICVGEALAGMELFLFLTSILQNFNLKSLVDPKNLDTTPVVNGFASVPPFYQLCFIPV
METHOD: Inhibition of CYP2C9 in human liver microsome at 3 uM pre-incubated with compound for 5 mins followed NADPH addition and measured after 10 mins by LC-MS/MS analysis relative to control
CONDITION SET: liver microsomes
METRIC NAME: inhibition at 10 min, 3 µM (%)
Just the number please, in %, no unit attached.

May I ask what inhibition at 10 min, 3 µM has been recorded for Nc1ccc(S(=O)(=O)Nc2ccnn2-c2ccccc2)cc1 [SULFAPHENAZOLE] ?
79

----------
METHOD: Cmax in male Sprague-Dawley rat at 2 mg/kg, iv measured up to 24 hrs by LC-MS/MS analysis
Type: ADME, organism-based
CONDITION SET: in vivo
METRIC NAME: Cmax (ng/mL)
Just the number please, in ng/mL, no unit attached.

May I ask what Cmax has been recorded for O=C(Nc1cc(Cl)cc(Cl)c1)c1nc(-c2cccc(Cl)c2)cs1 ?
4750

----------
Organism: Homo sapiens
METHOD: Selectivity index, ratio of IC50 for human recombinant CYP1A2 to IC50 for human recombinant CYP1B1 using 7-ethoxyresorufin as substrate
Outcome: fulfilled for Ratio IC50 of at least 400; not fulfilled for anything lower.

These solved cases illustrate the format of a correct answer.
For this molecule, is measured Ratio IC50 400 or higher? O=C(Nc1cccc(F)c1)c1nc(-c2ccccc2)cs1
not fulfilled

And the next one, COc1cc(NC(=O)c2nc(-c3ccc(F)cc3)cs2)cc(OC)c1 ?
fulfilled

Next:
For this molecule, is measured Ratio IC50 400 or higher? NC(=O)c1ccc(-c2csc(C(=O)Nc3ccc(C(F)(F)F)cc3)n2)cc1
fulfilled

And the next one, O=C(Nc1ccc(Cl)cc1Cl)c1nc(-c2ccccc2F)cs1 ?
not fulfilled

And the next one, N#Cc1ccc(-c2csc(C(=O)Nc3ccc(OC(F)F)cc3)n2)cc1 ?
fulfilled

And the next one, O=C(Nc1cc(Cl)cc(Cl)c1)c1nc(-c2ccc(Cl)cc2)cs1 ?
fulfilled

And the next one, Cc1sc(C(=O)Nc2ccc(OC(F)F)cc2)nc1-c1cccc(F)c1 ?
fulfilled

And the next one, Cc1sc(C(=O)Nc2ccc(OC(F)F)cc2)nc1-c1cccc(Cl)c1 ?
fulfilled

And the next one, Cc1sc(C(=O)Nc2cc(Cl)cc(Cl)c2)nc1-c1cccc(F)c1 ?
fulfilled

And the next one, COc1cc(Cl)cc(NC(=O)c2nc(-c3ccccc3)cs2)c1 ?
not fulfilled

And the next one, O=C(Nc1ccccc1)c1nc(-c2ccccc2)cs1 ?
not fulfilled

And the next one, O=C(Nc1cc(Cl)cc(Cl)c1)c1nc(-c2ccccc2)cs1 ?
not fulfilled

And the next one, O=C(Nc1ccc(I)cc1)c1nc(-c2ccccc2)cs1 ?
not fulfilled

And the next one, O=C(Nc1ccc(OC(F)F)cc1)c1nc(-c2cccc(Cl)c2)cs1 ?
fulfilled

----------
METHOD: Tmax in male Sprague-Dawley rat at 10 mg/kg, po measured up to 24 hrs by LC-MS/MS analysis
Type: ADME, organism-based
CONDITION SET: in vivo
METRIC NAME: Tmax (h)
Just the number please, in h, no unit attached.

May I ask what Tmax has been recorded for O=C(Nc1cc(Cl)cc(Cl)c1)c1nc(-c2cccc(Cl)c2)cs1 ?
1

----------
METHOD: AUC (0 to infinity) in male Sprague-Dawley rat at 2 mg/kg, iv measured up to 24 hrs by LC-MS/MS analysis
Assay type: ADME, organism-based
CONDITION SET: in vivo
METRIC NAME: AUC(0-inf) (ng·h/mL)
Just the number please, in ng·h/mL, no unit attached.

May I ask what AUC(0-inf) has been recorded for O=C(Nc1cc(Cl)cc(Cl)c1)c1nc(-c2cccc(Cl)c2)cs1 ?
2300
